Consider the following compounds; for each one, report its EC50.
# experimental.target: dopamine D2 receptors (Homo sapiens (Human))
# test.details: Dopamine D2 receptor β-arrestin2 BRET (recruitment);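 note: cells co-expressing Rluc-fused D2 receptor, GRK2 and GFP2-fused β-arrestin2, BRET read with coelenterazine 400a after adding drug over a concentration series, in duplicate wells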
# Assay type: cell-based
# measurement.parameters: D2 receptor, β-arrestin2 pathway; read-out: β-arrestin2 BRET EC50
A number alone suffices; assume µM.

Sure, the documented EC50 for O=C(N[C@H]1CC[C@H](CCN2CCN3c4cccc5scc(c45)CC3C2)CC1)N1CCCCC1 (some centres unmarked) [Compound I-29] is 0.102

Field EC50 (entry O=C1c2ccccc2CN1CCCCN1CCN2c3cccc4scc(c34)CC2C1 (centres unmarked) [Compound I-22] ) reads 0.328

Per the record, CN(C)C(=O)N[C@H]1CC[C@H](CCN2CCN3c4cccc5scc(c45)CC3C2)CC1 (single isomer, unassigned; (-)) [(−)-I-27] has EC50 of 0.0106

Notebook: O=C1CCc2ccc(OCCCN3CCN4c5cccc6scc(c56)CC4C3)cc2N1 (centres unmarked) [Compound I-18] , EC50 read as 0.279

The compound listed as O=C1NCCN1c1cccc(CN2CCN3c4cccc5scc(c45)CC3C2)c1 (centres unmarked) [Compound I-9] has a reported EC50 of 0.0286

// EC50 value for O=C(CN1CCN2c3cccc4scc(c34)CC2C1)c1ccc(F)cc1 (centres unmarked) [Compound I-10] : 0.0143

compound Fc1ccc(-c2cncc(CN3CCN4c5cccc6scc(c56)CC4C3)c2)cc1 (centres unmarked) [Compound I-8] , EC50 observed: 0.371

For record O=c1ccc2ccc(OCCCCN3CCN4c5cccc6scc(c56)CC4C3)cc2[nH]1 (centres unmarked) [Compound I-19] the listed EC50 is 0.0439

###

# experimental.target: dopamine D2 receptors (Homo sapiens (Human), UniProt P14416)
# Sequence (P14416 whole entry, the tested form may be a part): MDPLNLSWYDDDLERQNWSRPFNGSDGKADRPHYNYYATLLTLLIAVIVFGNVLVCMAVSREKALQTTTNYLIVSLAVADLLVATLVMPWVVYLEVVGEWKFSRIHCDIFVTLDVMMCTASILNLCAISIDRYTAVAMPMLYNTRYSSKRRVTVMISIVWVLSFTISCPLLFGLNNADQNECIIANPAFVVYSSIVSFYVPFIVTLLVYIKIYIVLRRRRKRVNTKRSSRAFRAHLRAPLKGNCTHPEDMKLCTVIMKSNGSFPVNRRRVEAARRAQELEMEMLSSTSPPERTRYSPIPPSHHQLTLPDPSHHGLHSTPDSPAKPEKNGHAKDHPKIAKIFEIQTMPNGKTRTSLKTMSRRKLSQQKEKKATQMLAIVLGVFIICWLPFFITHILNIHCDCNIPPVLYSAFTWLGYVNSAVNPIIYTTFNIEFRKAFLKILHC
# test.details: Affinity for dopamine D2 receptors, radioligand competition with [3H]-Methylspiperone
# measurement.parameters: 293T membrane transiently expressing D2
Mark each entry TRUE if its Ki sits below 800 nM, and FALSE for all others.

*Q* Problem: For the molecule O=c1ccc2ccc(OCCCCN3CCN4c5cccc6scc(c56)CC4C3)cc2[nH]1 (centres unmarked) [Compound I-19] , is Ki under 800 nM?
*A* TRUE

*Q* Is Ki strictly under 800 nM for the entry O=C(CN1CCN2c3cccc4scc(c34)CC2C1)c1ccc(F)cc1 (centres unmarked) [Compound I-10] ?
*A* FALSE

*Q* Take the molecule c1cc2c3c(csc3c1)CC1CN(CCCCOc3ccc4scnc4c3)CCN21 (centres unmarked) [Compound I-21] and say whether its Ki is less than 800 nM.
*A* FALSE

*Q* Please let me know if CN(C)C(=O)N[C@H]1CC[C@H](CCN2CCN3c4cccc5scc(c45)CC3C2)CC1 (some centres unmarked) [Compound I-27] shows Ki below 800 nM.
*A* TRUE

*Q* Hello, is Ki of the following molecule strictly smaller than 800 nM? COc1cc2c(cc1OC)C(=O)N(CCCCN1CCN3c4cccc5scc(c45)CC3C1)C2 (centres unmarked) [Compound I-23]
*A* TRUE

*Q* Is Ki strictly under 800 nM for the entry O=c1ccc2ccc(OCCCN3CCN4c5cccc6scc(c56)CC4C3)cc2[nH]1 (centres unmarked) [Compound I-17] ?
*A* TRUE

*Q* Take the molecule CN(C)C(=O)N[C@H]1CC[C@H](CCN2CCN3c4cccc5scc(c45)C[C@@H]3C2)CC1 [(+)-I-27] and say whether its Ki is less than 800 nM.
*A* FALSE

###

Give pKi for every item shown.
# experimental.target: UniProt P08908
# Sequence (P08908 whole entry): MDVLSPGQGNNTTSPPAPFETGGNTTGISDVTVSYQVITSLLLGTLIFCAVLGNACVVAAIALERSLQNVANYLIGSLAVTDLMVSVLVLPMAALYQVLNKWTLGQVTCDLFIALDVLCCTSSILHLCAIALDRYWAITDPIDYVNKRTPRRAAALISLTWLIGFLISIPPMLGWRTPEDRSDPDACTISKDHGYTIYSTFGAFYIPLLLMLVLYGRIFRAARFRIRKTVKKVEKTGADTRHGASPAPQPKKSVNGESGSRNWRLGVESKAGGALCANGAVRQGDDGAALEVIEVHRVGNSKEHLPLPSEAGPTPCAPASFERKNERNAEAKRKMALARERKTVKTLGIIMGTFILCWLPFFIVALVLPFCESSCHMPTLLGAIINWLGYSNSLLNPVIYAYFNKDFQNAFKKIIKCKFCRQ
# test.details: Affinity for 5-HT1A receptors, radioligand competition with [3H]-LSD;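 note: membranes from cells transiently transfected with 5-HT1A receptor, bound [3H]-LSD displaced by compound at 10^-9 to 10^-5 M, 2 h incubation at room temperature in the dark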
# Format: binding
# measurement.parameters: 293T membrane transiently expressing 5-HT1A; [3H]-LSD; read-out: 5-HT1A affinity Ki
Field pKi (float): negative decimal logarithm of the concentration in molar.

With UniProt P08908 as the test system, c1ccc(OCCN2CCN3c4cccc5scc(c45)CC3C2)cc1 (centres unmarked) [Compound I-15] showed pKi of 6.08

The observed pKi for CN(C)C(=O)N[C@H]1CC[C@H](CCN2CCN3c4cccc5scc(c45)CC3C2)CC1 (some centres unmarked) [Compound I-27] when tested with UniProt P08908 stands at 6.80

Test item c1csc(CCN2CCN3c4cccc5scc(c45)CC3C2)c1 (centres unmarked) [Compound I-6] ; UniProt P08908; reported pKi was 5.56

The reported pKi value, UniProt P08908, for c1cc2c3c(csc3c1)CC1CN(CCCCOc3ccc4scnc4c3)CCN21 (centres unmarked) [Compound I-21] reads 5.49

Summary: O=c1ccc2ccc(OCCCN3CCN4c5cccc6scc(c56)CC4C3)cc2[nH]1 (centres unmarked) [Compound I-17] , UniProt P08908, pKi = 6.47

# lookup: O=C1c2ccccc2CN1CCCCN1CCN2c3cccc4scc(c34)CC2C1 (centres unmarked) [Compound I-22] on UniProt P08908, pKi = 6.46

The measured pKi that O=C(N[C@H]1CC[C@H](CCN2CCN3c4cccc5scc(c45)CC3C2)CC1)N1CCCCC1 (some centres unmarked) [Compound I-29] showed for UniProt P08908 is 6.92

Hey, UniProt P08908 data for c1cc2c3c(csc3c1)CC1CN(CCCOc3ccc4c(c3)OCO4)CCN21 (centres unmarked) [Compound I-16] : pKi came out at 6.25

Item: c1ccc(-c2cccc(CN3CCN4c5cccc6scc(c56)CC4C3)c2)cc1 (centres unmarked) [Compound I-7] | System: UniProt P08908 | pKi: 4.41

Observed pKi on UniProt P08908, entry O=c1ccc2ccc(OCCCCN3CCN4c5cccc6scc(c56)CC4C3)cc2[nH]1 (centres unmarked) [Compound I-19] , equals 7.52

Entry O=C(CN1CCN2c3cccc4scc(c34)CC2C1)c1ccc(F)cc1 (centres unmarked) [Compound I-10] ; assay system UniProt P08908; pKi recorded at 6.01

The observed pKi for Fc1ccc(-c2cncc(CN3CCN4c5cccc6scc(c56)CC4C3)c2)cc1 (centres unmarked) [Compound I-8] when tested with UniProt P08908 stands at 5.01

Log: UniProt P08908, compound O=C1[C@H]2CCCC[C@H]2C(=O)N1CCCCN1CCN2c3cccc4scc(c34)CC2C1 (some centres unmarked) [Compound I-26] , pKi = 6.40

Note to self: pKi of CN(C)C(=O)N[C@H]1CC[C@H](CCN2CCN3c4cccc5scc(c45)CC3C2)CC1 (single isomer, unassigned; (-)) [(−)-I-27] with UniProt P08908 was 7.10

Measured on UniProt P08908, Fc1ccc(CCN2CCN3c4cccc5scc(c45)CC3C2)cc1 (centres unmarked) [Compound I-5] has a documented pKi of 6.55

UniProt P08908 pKi of COc1cc2c(cc1OC)C(=O)N(CCCCN1CCN3c4cccc5scc(c45)CC3C1)C2 (centres unmarked) [Compound I-23] is 5.38

Summary: O=C(N[C@H]1CC[C@H](CCN2CCN3c4cccc5scc(c45)CC3C2)CC1)N1CCCC1 (some centres unmarked) [Compound I-28] , UniProt P08908, pKi = 7.30

###

parameter: Ki (nM)
Answer with a number only, understood to be in nM.

Record for c1csc(CCN2CCN3c4cccc5scc(c45)CC3C2)c1 (stereo not shown) under target or system 5-HT2A receptor (Homo sapiens (Human)): Ki reported as 7250

Record O=C1CCc2ccc(OCCCN3CCN4c5cccc6scc(c56)CC4C3)cc2N1 (stereo not shown) / 5-HT2A receptor (Homo sapiens (Human)), Ki recorded as 160

Let me check: CN(C)C(=O)N[C@H]1CC[C@H](CCN2CCN3c4cccc5scc(c45)CC3C2)CC1 (stereo partly shown) [Compound I-27] , system 5-HT2A receptor (Homo sapiens (Human)), measured Ki is 210

###

What log10 of EC50 was measured for each of the following?
# experimental.target: 5-HT2A receptor (Homo sapiens (Human))
# Sequence (P28223 whole entry): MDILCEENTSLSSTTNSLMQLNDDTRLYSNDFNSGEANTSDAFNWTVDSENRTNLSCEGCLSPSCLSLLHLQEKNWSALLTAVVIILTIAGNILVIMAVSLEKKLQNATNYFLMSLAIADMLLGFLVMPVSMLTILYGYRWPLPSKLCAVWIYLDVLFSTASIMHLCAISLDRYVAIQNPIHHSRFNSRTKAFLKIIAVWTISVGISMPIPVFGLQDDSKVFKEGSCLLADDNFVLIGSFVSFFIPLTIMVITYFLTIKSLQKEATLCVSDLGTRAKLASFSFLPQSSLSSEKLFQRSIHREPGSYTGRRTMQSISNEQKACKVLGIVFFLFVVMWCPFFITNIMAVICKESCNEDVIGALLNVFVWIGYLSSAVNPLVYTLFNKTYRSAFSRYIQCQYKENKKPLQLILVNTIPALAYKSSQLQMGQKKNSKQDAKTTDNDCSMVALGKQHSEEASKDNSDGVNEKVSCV
# test.details: 5-HT2A receptor β-arrestin2 BRET (recruitment);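 note: cells co-expressing Rluc-tagged 5-HT2A receptor, GRK2 and GFP2-tagged β-arrestin2, read by BRET with coelenterazine 400a (5 µM) across graded drug concentrations in duplicate, signal reflecting β-arrestin2 membrane recruitment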
# Format: cell-based
# measurement.parameters: 5-HT2A receptor, β-arrestin2 pathway; read-out: β-arrestin2 BRET EC50
Note: values are log10 of EC50 expressed in nM.

Entry COc1cc2c(cc1OC)C(=O)N(CCCCN1CCN3c4cccc5scc(c45)CC3C1)C2 (centres unmarked) [Compound I-23] , log10 of EC50 reported as 3.91

The compound identified as O=C(N[C@H]1CC[C@H](CCN2CCN3c4cccc5scc(c45)CC3C2)CC1)N1CCCCC1 (some centres unmarked) [Compound I-29] registered its log10 of EC50 at 1.48

Lab note: c1csc(CCN2CCN3c4cccc5scc(c45)CC3C2)c1 (centres unmarked) [Compound I-6] gave log10 of EC50 of 3.92

Record O=C(NCCN1CCN2c3cccc4scc(c34)CC2C1)c1ccc(F)cc1 (centres unmarked) [Compound I-12] . Reported log10 of EC50: 3.72

The reported log10 of EC50 of the compound O=C(NCCN1CCN2c3cccc4scc(c34)CC2C1)C1CCOCC1 (centres unmarked) [Compound I-14] was 2.09

Sure, the documented log10 of EC50 for O=C1c2ccccc2CN1CCCCN1CCN2c3cccc4scc(c34)CC2C1 (centres unmarked) [Compound I-22] is 3.54

Summary for this compound, CN(C)C(=O)N[C@H]1CC[C@H](CCN2CCN3c4cccc5scc(c45)CC3C2)CC1 (some centres unmarked) [Compound I-27] : log10 of EC50 is 1.14

Per the record, O=c1ccc2ccc(OCCCN3CCN4c5cccc6scc(c56)CC4C3)cc2[nH]1 (centres unmarked) [Compound I-17] has log10 of EC50 of 3.10

response.value for Fc1ccc(-c2cncc(CN3CCN4c5cccc6scc(c56)CC4C3)c2)cc1 (centres unmarked) [Compound I-8] (field: log10 of EC50) = 3.11

Note to self: log10 of EC50 recorded for c1ccc(OCCN2CCN3c4cccc5scc(c45)CC3C2)cc1 (centres unmarked) [Compound I-15] was 3.25

log10 of EC50 for CCCN1CCN2c3cccc4scc(c34)CC2C1 (centres unmarked) [Compound I-2] is 2.47

Data origin, for the record: patent US20240383913A1
